# system tested: UniProt A0A194QJK0
# assay info: Fluorescence competitive binding assay (1-NPN displacement), wildtype PxutCSP19
Below, each entry is listed with its recorded IC50.

molecule	measured property	experimental result
CCc1ccc(C(=O)NN(C(=O)c2cc(C)cc(C)c2)C(C)(C)C)cc1 [Tebufenozide, reference compound]	IC50	> 20 µM

Incoming: Look up and report measured IC50 for this entry: CCOCn1c(-c2ccc(Cl)cc2)c(C#N)c(Br)c1C(F)(F)F [Chlorfenapyr]
Outgoing: 10.7 µM

Incoming: Look up and report measured IC50 for this entry: CCCCCCCCC=O [Nonanal]
Outgoing: > 20 µM

Incoming: Look up and report measured IC50 for this entry: O=C(NC(=O)c1ccccc1Cl)Nc1ccc(OC(F)(F)F)cc1 [Triflumuron, reference compound]
Outgoing: > 20 µM

Incoming: Look up and report measured IC50 for this entry: C/C(=N\C#N)N(C)Cc1ccc(Cl)nc1 [Acetamiprid, reference compound]
Outgoing: > 20 µM

Incoming: Look up and report measured IC50 for this entry: CCCCCC=O [Hexanal]
Outgoing: > 20 µM

Incoming: Look up and report measured IC50 for this entry: C=C1C2CCC(C2)C1(C)C (stereo not shown) [Camphene]
Outgoing: > 20 µM

Incoming: Look up and report measured IC50 for this entry: CCCCCCCCCCC=O [Undecanal]
Outgoing: > 20 µM

Incoming: Look up and report measured IC50 for this entry: Cc1ccc(C(C)C)cc1O [Carvacrol]
Outgoing: > 20 µM

Incoming: Look up and report measured IC50 for this entry: O=C1CCC[C@@H]2[C@H]3CCCN4CCC[C@@H](CN12)[C@@H]34 [Matrine, reference compound]
Outgoing: > 20 µM

* * *

# system tested: PxutCSP19 (Papilio xuthus, UniProt A0A194QJK0)
# Sequence (A0A194QJK0 entry or part of it): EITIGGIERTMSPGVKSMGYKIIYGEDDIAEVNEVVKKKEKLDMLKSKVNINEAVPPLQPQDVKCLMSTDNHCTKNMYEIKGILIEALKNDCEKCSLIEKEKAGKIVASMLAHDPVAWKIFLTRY
# assay info: Fluorescence competitive binding assay (1-NPN displacement), wildtype PxutCSP19
# measurement parameters: read-out: F.D. (fluorescent displacement rate of ligands), Wildtype (WT); ligand at 20 μM; PxutCSP19/1-NPN each 2 μM; NB = no binding
Give T when the value for inhibition at 20 µM is at least 40%. Give F when it is less.

Field: example entries. Status: answers known.
compound	class label
CCCCCCCCO [1-Octanol]	T
COc1cc(C=O)cc(OC)c1O [Syringaldehyde]	T
CCOP(=S)(OCC)O/N=C(\C#N)c1ccccc1 [Phoxim]	T

Incoming: Can O=C(NC(=O)c1c(F)cccc1F)Nc1cc(Cl)c(OC(F)(F)C(F)F)c(Cl)c1 [Hexaflumuron] be said to have inhibition at 20 µM at or above 40%?
Outgoing: T

Incoming: Can CC/C=C\CCO [(Z)-3-Hexen-1-ol] be said to have inhibition at 20 µM at or above 40%?
Outgoing: F

Incoming: Can C=C/C(C)=C/CC=C(C)C [Ocimene] be said to have inhibition at 20 µM at or above 40%?
Outgoing: T

* * *

# system tested: PxutCSP19 (Papilio xuthus, UniProt A0A194QJK0)
# assay info: Fluorescence competitive binding assay (1-NPN displacement), wildtype PxutCSP19
pIC50: −log10 of the molar value.
Below, each entry is listed with its recorded pIC50.

Here are 3 compounds together with their reported answers.
compound	measured property	experimental result
CC1=CCC(O)(C(C)C)CC1 (stereo not drawn)	pIC50	< 4.44
CC1=CCC2C(C1)C2(C)C (stereo not drawn)	pIC50	< 4.70
C/C=C(\C)C(=O)O[C@H]1C[C@@H](OC(C)=O)[C@@]2(C(=O)OC)CO[C@H]3[C@@H](O)[C@@](C)([C@]45O[C@@]4(C)[C@H]4C[C@@H]5O[C@@H]5OC=C[C@@]54O)[C@H]4[C@]1(CO[C@]4(O)C(=O)OC)[C@@H]32 [Azadirachtin, reference compound]	pIC50	< 4.70

Incoming: Look up and report measured pIC50 for this entry: "O=CCc1ccccc1"
Outgoing: < 4.70

Incoming: Look up and report measured pIC50 for this entry: CNC(=O)ON=C(C)SC [Methomyl, reference compound]
Outgoing: < 4.70

Incoming: Look up and report measured pIC50 for this entry: CC1=CC[C@@H]2C[C@H]1C2(C)C [(1R)-(+)-α-Pinene]
Outgoing: < 4.70

* * *

# system tested: PxutCSP19 (Papilio xuthus, UniProt A0A194QJK0)
# assay info: Fluorescence competitive binding assay (1-NPN displacement), wildtype PxutCSP19
# measurement parameters: read-out: F.D. (fluorescent displacement rate of ligands), Wildtype (WT); ligand at 20 μM; PxutCSP19/1-NPN each 2 μM; NB = no binding
measured property: inhibition at 20 µM (%)
Give the number; % is assumed, so skip it.

Incoming: Look up and report measured inhibition at 20 µM for this entry: "OCCc1ccccc1"
Outgoing: 39.7

Incoming: Look up and report measured inhibition at 20 µM for this entry: N#Cc1nn(-c2c(Cl)cc(C(F)(F)F)cc2Cl)c(N)c1[S+]([O-])C(F)(F)F (centres unmarked) [Fipronil, reference compound]
Outgoing: 37.5

* * *

# system tested: PxutCSP19 (Papilio xuthus, UniProt A0A194QJK0)
# assay info: Fluorescence competitive binding assay (1-NPN displacement), wildtype PxutCSP19
pIC50: −log10 of the molar value.
Below, each entry is listed with its recorded pIC50.

Here are 6 compounds together with their reported answers.
compound	experimental result
CCOC(C)=O [Ethyl acetate]	< 4.70
CC(C)=CCC/C(C)=C/CC/C(C)=C/CO	< 4.70
C=C1CCC2(C(C)C)CC12 (stereo not drawn)	< 4.70
COC(=O)N(C(=O)N1CO[C@@]2(C(=O)OC)Cc3cc(Cl)ccc3C2=N1)c1ccc(OC(F)(F)F)cc1	4.97
C=CC(=C)CCC=C(C)C	< 4.70
CCCSP(=O)(OCC)Oc1ccc(Br)cc1Cl (stereo not drawn) [Profenofos, reference compound]	< 4.70

Incoming: Look up and report measured pIC50 for this entry: "CC1=CCC(C(C)C)=CC1"
Outgoing: < 4.44

Incoming: Look up and report measured pIC50 for this entry: "CCCCCCCCO"
Outgoing: 4.46

Incoming: Look up and report measured pIC50 for this entry: CCCC(=O)OCC [Ethyl butyrate]
Outgoing: < 4.70

Incoming: Look up and report measured pIC50 for this entry: CN1COCN(Cc2cnc(Cl)s2)/C1=N\[N+](=O)[O-] [Thiamethoxam, reference compound]
Outgoing: < 4.70

Incoming: Look up and report measured pIC50 for this entry: "CCOP(=S)(OCC)Oc1nc(Cl)c(Cl)cc1Cl"
Outgoing: 5.26

Incoming: Look up and report measured pIC50 for this entry: "CC1=CC=C(C(C)C)CC1"
Outgoing: < 4.44

Incoming: Look up and report measured pIC50 for this entry: "CCOP(=S)(OCC)O/N=C(\C#N)c1ccccc1"
Outgoing: 5.58

Incoming: Look up and report measured pIC50 for this entry: "CC1=CC[C@@H](C(C)(C)O)CC1"
Outgoing: < 4.44

Incoming: Look up and report measured pIC50 for this entry: CS/C(C)=N\OC(=O)N(C)SN(C)C(=O)O/N=C(\C)SC [Thiodicarb, reference compound]
Outgoing: < 4.70

Incoming: Look up and report measured pIC50 for this entry: CNC(=O)c1cc(Cl)cc(C)c1NC(=O)c1cc(Br)nn1-c1ncccc1Cl [Chlorantraniliprole, reference compound]
Outgoing: < 4.70

Incoming: Look up and report measured pIC50 for this entry: C=CC(C)(O)CCC=C(C)C (stereo not drawn)
Outgoing: 4.47

Incoming: Look up and report measured pIC50 for this entry: "CC1=CC[C@H](C(C)C)C=C1"
Outgoing: < 4.70

* * *

# system tested: PxutCSP19 (Papilio xuthus)
# assay info: Fluorescence competitive binding assay (1-NPN displacement), wildtype PxutCSP19
# measurement parameters: read-out: F.D. (fluorescent displacement rate of ligands), Wildtype (WT); ligand at 20 μM; PxutCSP19/1-NPN each 2 μM; NB = no binding
Below, each entry is listed with its recorded inhibition at 20 µM.
Give the number; % is assumed, so skip it.

compound	measured property	unit string	experimental result
O=C1CCC[C@@H]2[C@H]3CCCN4CCC[C@@H](CN12)[C@@H]34 [Matrine, reference compound]	inhibition at 20 µM	%	40
CCc1ccc(C(=O)NN(C(=O)c2cc(C)cc(C)c2)C(C)(C)C)cc1 [Tebufenozide, reference compound]	inhibition at 20 µM	%	48.5

Now look at this one.
Incoming: Consider the compound "C=C(C)[C@H]1Cc2c(ccc3c2O[C@@H]2COc4cc(OC)c(OC)cc4[C@@H]2C3=O)O1" tested on PxutCSP19 (Papilio xuthus); state its inhibition at 20 µM.
Outgoing: 67.6
